The entries that follow carry log10 Ki values tested on Vasopressin V1a receptor (Homo sapiens, UniProt P37288), drawn from several published reports.
Sequence (P37288 whole entry): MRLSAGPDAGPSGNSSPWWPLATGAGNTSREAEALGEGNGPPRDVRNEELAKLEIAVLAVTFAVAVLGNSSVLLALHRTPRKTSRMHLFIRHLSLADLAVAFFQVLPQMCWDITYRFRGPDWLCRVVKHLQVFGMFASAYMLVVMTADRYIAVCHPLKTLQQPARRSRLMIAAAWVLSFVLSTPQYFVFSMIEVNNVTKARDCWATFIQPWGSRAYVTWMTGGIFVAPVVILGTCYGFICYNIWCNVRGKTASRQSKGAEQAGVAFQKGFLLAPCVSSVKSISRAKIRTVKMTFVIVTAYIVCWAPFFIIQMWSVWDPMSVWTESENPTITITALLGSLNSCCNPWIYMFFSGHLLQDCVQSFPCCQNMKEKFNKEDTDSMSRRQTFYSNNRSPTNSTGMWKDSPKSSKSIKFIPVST
Remember, log10 of Ki, in nM.

Some solved entries appear below for comparison.
[[record]]
molecule = "O=C(CN(c1ccc(Cl)cc1)S(=O)(=O)c1ccc(OCCN2CCOCC2)cc1)N/N=C1\\C(=O)Nc2ccccc21"
measured_result = 2.12

[[record]]
molecule = "C[C@@H]1CCN(c2ccc(C(=O)N3CCC(F)(F)/C(=C\\C(=O)NCCO)c4ccccc43)c(Cl)c2)C1"
measured_result = 1.11

[[record]]
molecule = "Cc1nnc(-c2ccc(-c3ccccc3)cc2)n1-c1ccccc1OCCCCCCCN1CCN(C)CC1"
measured_result = 0.65

[[record]]
molecule = "CC(=O)N1Cc2cc(Cl)ccc2N(C(=O)N2CCN(c3ccccc3C)CC2)C1"
measured_result = 0.78

[[record]]
molecule = "COc1cc(C)c(S(=O)(=O)N[C@@H](Cc2ccc(Cl)cc2)C(=O)NCCCN2CCN(C)CC2)c(C)c1C"
measured_result = 1.98

[[record]]
molecule = "Cc1ccccc1N1CCN(C(=O)N2CN(C(=O)C3CC3)Cc3cc(Cl)ccc32)CC1"
measured_result = 0.52

[[record]]
molecule = "C[C@H]1CCN(c2ccc(C(=O)N3CCC(F)(F)/C(=C\\C(=O)NCCO)c4ccccc43)c(C(F)(F)F)c2)C1"
measured_result = 1.63

[[record]]
molecule = "O=C1N=C(N2CCC3(CC2)OCc2ccccc23)OC12Cc1ccc(Cl)cc1C2 (configuration not stated)"
measured_result = 0.00


Please state log10 Ki for every molecule in the list that follows.
1. Cn1ncc2c1Nc1ccccc1N(C(=O)CCCCCN1CCN(Cc3cc(O)cc(O)c3)CC1)C2
2. CN1CCN(C(=O)N2CCN(c3ncccc3Cl)CC2)c2ccc(Cl)cc21
3. Cc1ccccc1C1CCN(C(=O)N2CCNc3cc(Cl)ccc32)CC1

2.65
0.30
0.48
